Where do these numbers come from? They come from the antibiotic and cytotoxicity screens of Wong et al. (2023).

System: HepG2
Assay procedure: cytotoxicity call (relative viability < 0.9)
Test parameters: 10 µM
About 3,300 (8.5%) of roughly 39,000 compounds were called active. The sample as a whole holds a higher share of actives than the screen did.
# output must be one of active, inactive

Past entries and their recorded results:
{"Smiles text": "C[C@H]1CN([C@@H](C)CO)C(=O)c2cccc(NC(=O)Nc3ccc(F)cc3)c2O[C@@H]1CN(C)C(=O)Nc1ccc(C(F)(F)F)cc1", "Classification": "inactive"}
{"Smiles text": "Cc1ccc(S(=O)(=O)N(C)C[C@@H]2Oc3ccc(NC(=O)CCN4CCOCC4)cc3CC(=O)N([C@H](C)CO)C[C@@H]2C)cc1", "Classification": "inactive"}
{"Smiles text": "C[C@@H]1CN([C@@H](C)CO)C(=O)c2cc(NC(=O)Nc3ccccc3)ccc2O[C@@H]1CN(C)Cc1ccc(-c2ccccc2)cc1", "Classification": "active"}
{"Smiles text": "Cc1ccc(S(=O)(=O)Nc2ccc3c(c2)C(=O)N([C@@H](C)CO)C[C@H](C)[C@@H](CN(C)Cc2ccc4c(c2)OCO4)OCCCC[C@@H](C)O3)cc1", "Classification": "inactive"}
{"Smiles text": "COc1ccc(NC(=O)N(C)C[C@@H]2OCCCC[C@@H](C)Oc3ccc(NS(=O)(=O)c4ccc(Cl)cc4)cc3C(=O)N([C@@H](C)CO)C[C@@H]2C)cc1", "Classification": "inactive"}

Task: What was the test verdict on C[C@H]1CN([C@@H](C)CO)C(=O)c2cccc(NC(=O)C3CC3)c2O[C@@H]1CN(C)C(=O)Nc1ccc2c(c1)OCO2 ?
Output: inactive
